Answer each item with its documented EC50.
# ASSAYED_TARGET: LXRα ligand-binding domain (LBD) (Homo sapiens)
# Sequence (Q13133 155-447): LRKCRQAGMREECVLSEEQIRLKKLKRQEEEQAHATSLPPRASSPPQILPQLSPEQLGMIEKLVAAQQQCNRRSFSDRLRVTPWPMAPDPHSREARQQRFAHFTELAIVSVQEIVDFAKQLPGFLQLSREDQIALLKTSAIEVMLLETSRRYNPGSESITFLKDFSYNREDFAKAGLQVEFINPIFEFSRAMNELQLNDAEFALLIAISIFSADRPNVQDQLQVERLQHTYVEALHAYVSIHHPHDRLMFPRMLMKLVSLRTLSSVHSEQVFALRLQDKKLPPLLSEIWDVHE
# TEST_DETAILS: LXR Gal4 reporter transient transfection assay (M2H), Gal4α LBD
# EXPERIMENTAL_SETUP: HEK293 cells; read-out: M2H Gal4α LBD activity range (EC50)

CHEMICAL_SMILES: Cc1ccc2ccccc2c1S(=O)(=O)N(Cc1ccc(-c2cccc(C(C)(C)C(=O)O)c2)cc1)Cc1ccc(C(F)(F)F)o1
RECORDED_RESULT: < 0.1 µM

CHEMICAL_SMILES: CC(=O)NS(=O)(=O)c1cccc(-c2ccc(CN(Cc3ccc(C(F)(F)F)o3)S(=O)(=O)c3c(C)cc(C)cc3C)cc2)c1
RECORDED_RESULT: 0.1 to 1 µM

Record Cc1cc(C)c(S(=O)(=O)N(Cc2ccc(-c3cccc(C(F)(F)C(=O)O)c3)cc2)Cc2ccc(C(F)(F)F)o2)c(C)c1 . Reported EC50: 0.1 to 1 µM

###

# ASSAYED_TARGET: LXRβ ligand-binding domain (LBD) (Homo sapiens, UniProt P55055, DUP175-175)
# Construct: LXRβ (amino acids 156-461); expressed in transfected cells; host or cells: HEK293
# Sequence (P55055 with tags, fused parts or gaps DUP175-175): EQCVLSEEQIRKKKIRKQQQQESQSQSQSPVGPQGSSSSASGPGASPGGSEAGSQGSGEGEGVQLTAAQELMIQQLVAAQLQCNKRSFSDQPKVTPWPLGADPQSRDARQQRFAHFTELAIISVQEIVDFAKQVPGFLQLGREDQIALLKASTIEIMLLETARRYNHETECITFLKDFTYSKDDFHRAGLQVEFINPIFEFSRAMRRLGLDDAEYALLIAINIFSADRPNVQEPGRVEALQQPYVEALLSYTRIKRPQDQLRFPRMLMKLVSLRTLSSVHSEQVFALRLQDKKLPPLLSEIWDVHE
# TEST_DETAILS: LXR Gal4 reporter transient transfection assay (M2H), Gal4β LBD
# Format: cell-based
# EXPERIMENTAL_SETUP: HEK293 cells; read-out: M2H Gal4β LBD activity range (EC50)
Answer each item with its documented EC50.

Some compounds with recorded EC50:
COMPOUND: Cc1cc(C)c(S(=O)(=O)N(Cc2ccc(C(F)(F)F)o2)Cc2ccc(-c3cccc(C(C)(C)C(=O)O)c3)cc2Cl)c(C)c1
ASSAYED_TARGET: LXRβ ligand-binding domain (LBD) (Homo sapiens, UniProt P55055, DUP175-175)
RECORDED_RESULT: < 100 nM
--
COMPOUND: Cc1cc(C)c(S(=O)(=O)N(Cc2ccc(-c3cccc(CC(=O)O)c3)cc2)Cc2cccc(C(F)(F)F)c2)c(C)c1
ASSAYED_TARGET: LXRβ ligand-binding domain (LBD) (Homo sapiens, UniProt P55055, DUP175-175)
RECORDED_RESULT: < 100 nM
--
COMPOUND: Cc1cc(C)c(S(=O)(=O)N(Cc2ccc(-c3cccc(CCC(=O)O)c3)cc2)Cc2ccc(C(F)(F)F)o2)c(C)c1
ASSAYED_TARGET: LXRβ ligand-binding domain (LBD) (Homo sapiens, UniProt P55055, DUP175-175)
RECORDED_RESULT: < 100 nM
--
COMPOUND: Cc1cc(C)c(S(=O)(=O)N(Cc2ccc(-c3cccc(OCC(=O)O)c3)cc2)Cc2ccc(C(F)(F)F)o2)c(C)c1
ASSAYED_TARGET: LXRβ ligand-binding domain (LBD) (Homo sapiens, UniProt P55055, DUP175-175)
RECORDED_RESULT: 100 to 1000 nM
--
COMPOUND: Cc1cc(C)c(S(=O)(=O)N(Cc2ccc(C3=CS(=O)(=O)C(CC(=O)O)=C3)cc2)Cc2ccc(C(F)(F)F)o2)c(C)c1
ASSAYED_TARGET: LXRβ ligand-binding domain (LBD) (Homo sapiens, UniProt P55055, DUP175-175)
RECORDED_RESULT: 100 to 1000 nM
--
COMPOUND: Cc1cc(C)c(S(=O)(=O)N(Cc2ccc(-c3cccc(C(C)(C)C(=O)O)c3)cc2)Cc2ccc(C(F)(F)F)o2)c(C)c1
ASSAYED_TARGET: LXRβ ligand-binding domain (LBD) (Homo sapiens, UniProt P55055, DUP175-175)
RECORDED_RESULT: < 100 nM
--
COMPOUND: Cc1cc(C)c(S(=O)(=O)N(Cc2ccc(-c3cccc(Cc4nn[nH]n4)c3)cc2)Cc2ccc(C(F)(F)F)o2)c(C)c1
ASSAYED_TARGET: LXRβ ligand-binding domain (LBD) (Homo sapiens, UniProt P55055, DUP175-175)
RECORDED_RESULT: 100 to 1000 nM
--
COMPOUND: Cc1cc(C)c(S(=O)(=O)N(Cc2ccc(-c3cccc(C(C)C(=O)O)c3)cc2)Cc2ccc(C(F)(F)F)o2)c(C)c1 (centres unmarked)
ASSAYED_TARGET: LXRβ ligand-binding domain (LBD) (Homo sapiens, UniProt P55055, DUP175-175)
RECORDED_RESULT: < 100 nM
--
COMPOUND: CCOC(=O)Cc1cccc(-c2ccc(CN(Cc3ccc(C(F)(F)F)o3)S(=O)(=O)c3c(C)cc(C)cc3C)cc2)c1
ASSAYED_TARGET: LXRβ ligand-binding domain (LBD) (Homo sapiens, UniProt P55055, DUP175-175)
RECORDED_RESULT: < 100 nM
--
COMPOUND: Cc1cc(C)c(S(=O)(=O)N(Cc2ccc(N3CCCC(CC(=O)O)C3=O)cc2)Cc2ccc(C(F)(F)F)o2)c(C)c1 (centres unmarked)
ASSAYED_TARGET: LXRβ ligand-binding domain (LBD) (Homo sapiens, UniProt P55055, DUP175-175)
RECORDED_RESULT: 100 to 1000 nM

Hi! Can you tell me EC50 for each of these compounds?
1. Cc1cc(C)c(S(=O)(=O)N(Cc2ccc(-c3cc(F)c(CO)c(S(C)(=O)=O)c3)cc2)Cc2ccc(C(F)(F)F)o2)c(C)c1
2. Cc1ccc2ccccc2c1S(=O)(=O)N(Cc1ccc(-c2cccc(C(C)(C)C(=O)O)c2)cc1)Cc1ccc(C(F)(F)F)o1
3. Cc1cc(C)c(S(=O)(=O)N(Cc2ccc(N3CCCC(C(C)(C)C(=O)O)C3)cc2)Cc2ccc(C(F)(F)F)o2)c(C)c1 (centres unmarked)
4. Cc1cc(C)c(S(=O)(=O)N(Cc2ccc(-c3cc(F)cc(C4(C(=O)O)CC4)c3)cc2)Cc2ccc(C(F)(F)F)o2)c(C)c1
5. COc1ccc(C(C)(C)C(=O)O)cc1-c1ccc(CN(Cc2ccc(C(F)(F)F)o2)S(=O)(=O)c2c(C)cc(C)cc2C)cc1
6. Cc1cc(C)c(S(=O)(=O)N(Cc2ccc(-c3ccc(OCC(=O)O)cc3)cc2)Cc2ccc(C(F)(F)F)o2)c(C)c1
7. Cc1cc(C)c(S(=O)(=O)N(Cc2ccc(-c3cccc(CC(=O)O)c3)cc2)Cc2ccc(C(F)(F)F)o2)c(C)c1

< 100 nM
< 100 nM
100 to 1000 nM
< 100 nM
100 to 1000 nM
100 to 1000 nM
< 100 nM
